The reported measurements were obtained from PubChem BioAssay (NCI).

Exercise: state measured TGI for each of the compounds provided.
- Tested on: PC-3 prostate
- Experiment Summary: NCI tumour cell line growth inhibition, 48 h
Return type: number; implicit unit µM.

## Task Report TGI for COC1=CC(c2ccc[nH]2)=N/C1=C\c1[nH]c(C)c(CC(=O)OCc2ccccc2)c1CCC(=O)OCc1ccccc1 please.
## Result 12.6

## Task Report TGI for NC1=CC(=O)c2cccnc2C1=O please.
## Result 7.55

## Task Report TGI for CC12OOC(c3ccccc31)c1c2ccc2ccccc12 (stereo not drawn) please.
## Result 18.8

## Task Report TGI for CCOP(=O)(C=C=C1CCC2[C@@H]3CCc4cc(OC)ccc4C3CC[C@]12C)OCC (stereo partly drawn) please.
## Result 15

## Task Report TGI for O=c1cc(-c2ccccc2)oc2ccc(OC/C(=N/O)c3ccccc3)cc12 please.
## Result 16.1
